Biological target: Human 5-lipoxygenase (Homo sapiens, UniProt P09917)
Construct: purchased Cayman 60402; host or cells: insect cells
Sequence (P09917 whole entry): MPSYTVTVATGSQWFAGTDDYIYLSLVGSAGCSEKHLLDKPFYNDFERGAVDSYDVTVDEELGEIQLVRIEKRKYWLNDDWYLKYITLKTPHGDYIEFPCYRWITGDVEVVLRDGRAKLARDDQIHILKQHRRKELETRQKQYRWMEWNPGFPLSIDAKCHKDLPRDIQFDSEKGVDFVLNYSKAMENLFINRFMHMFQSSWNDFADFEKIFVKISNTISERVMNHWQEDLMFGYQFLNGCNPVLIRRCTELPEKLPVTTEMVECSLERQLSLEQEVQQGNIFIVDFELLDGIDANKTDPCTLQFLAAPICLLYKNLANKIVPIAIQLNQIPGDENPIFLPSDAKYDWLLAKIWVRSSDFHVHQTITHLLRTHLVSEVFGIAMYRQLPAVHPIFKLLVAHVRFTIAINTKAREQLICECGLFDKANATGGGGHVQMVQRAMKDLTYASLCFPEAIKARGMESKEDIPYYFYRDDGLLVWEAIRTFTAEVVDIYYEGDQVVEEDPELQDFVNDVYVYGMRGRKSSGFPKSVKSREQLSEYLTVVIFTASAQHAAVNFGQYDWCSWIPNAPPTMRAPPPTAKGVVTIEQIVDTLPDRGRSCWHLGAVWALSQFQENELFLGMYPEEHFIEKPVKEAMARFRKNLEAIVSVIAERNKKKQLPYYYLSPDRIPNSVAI
Experiment: Activity of compounds against 5-LO enzyme (LTB4 measurement and/or fluorescence method)
Assay type: biochemical
Settings: 5-LO, single concentration of 10 uM in duplicate
OBSERVABLE: inhibition at 10 µM

# count of solved cases: 4
COMPOUND	inhibition at 10 µM
CCc1nc2ccc(Cl)cn2c1C(=O)NCc1ccc(N2CCC(Oc3ccc(C(F)(F)F)cc3)CC2)cc1 [compound 168]	40 to 69%
Cc1nc2ccc(C#N)cn2c1C(=O)NCc1ccccc1 [compound 30]	< 40%
Cc1nc2ccccn2c1C(=O)NCc1ccc(-c2ccccc2)cc1 [compound 20]	40 to 69%
CCc1nc2ccccn2c1C(=O)NCc1ccc(OC(F)(F)F)cc1 [compound 51]	< 40%

For the next question, use this compound.
# input I'm curious: which inhibition at 10 µM was measured for CCc1nc2ccccn2c1C(=O)NCc1ccc(C(C)(C)C)cc1 [compound 49] tested on Human 5-lipoxygenase (Homo sapiens, UniProt P09917)?
# output < 40%
